meta.source: ChEMBL document CHEMBL2176961

# assay target: hERG (KCNH2) (Homo sapiens, UniProt Q12809)
# Sequence (Q12809 whole entry): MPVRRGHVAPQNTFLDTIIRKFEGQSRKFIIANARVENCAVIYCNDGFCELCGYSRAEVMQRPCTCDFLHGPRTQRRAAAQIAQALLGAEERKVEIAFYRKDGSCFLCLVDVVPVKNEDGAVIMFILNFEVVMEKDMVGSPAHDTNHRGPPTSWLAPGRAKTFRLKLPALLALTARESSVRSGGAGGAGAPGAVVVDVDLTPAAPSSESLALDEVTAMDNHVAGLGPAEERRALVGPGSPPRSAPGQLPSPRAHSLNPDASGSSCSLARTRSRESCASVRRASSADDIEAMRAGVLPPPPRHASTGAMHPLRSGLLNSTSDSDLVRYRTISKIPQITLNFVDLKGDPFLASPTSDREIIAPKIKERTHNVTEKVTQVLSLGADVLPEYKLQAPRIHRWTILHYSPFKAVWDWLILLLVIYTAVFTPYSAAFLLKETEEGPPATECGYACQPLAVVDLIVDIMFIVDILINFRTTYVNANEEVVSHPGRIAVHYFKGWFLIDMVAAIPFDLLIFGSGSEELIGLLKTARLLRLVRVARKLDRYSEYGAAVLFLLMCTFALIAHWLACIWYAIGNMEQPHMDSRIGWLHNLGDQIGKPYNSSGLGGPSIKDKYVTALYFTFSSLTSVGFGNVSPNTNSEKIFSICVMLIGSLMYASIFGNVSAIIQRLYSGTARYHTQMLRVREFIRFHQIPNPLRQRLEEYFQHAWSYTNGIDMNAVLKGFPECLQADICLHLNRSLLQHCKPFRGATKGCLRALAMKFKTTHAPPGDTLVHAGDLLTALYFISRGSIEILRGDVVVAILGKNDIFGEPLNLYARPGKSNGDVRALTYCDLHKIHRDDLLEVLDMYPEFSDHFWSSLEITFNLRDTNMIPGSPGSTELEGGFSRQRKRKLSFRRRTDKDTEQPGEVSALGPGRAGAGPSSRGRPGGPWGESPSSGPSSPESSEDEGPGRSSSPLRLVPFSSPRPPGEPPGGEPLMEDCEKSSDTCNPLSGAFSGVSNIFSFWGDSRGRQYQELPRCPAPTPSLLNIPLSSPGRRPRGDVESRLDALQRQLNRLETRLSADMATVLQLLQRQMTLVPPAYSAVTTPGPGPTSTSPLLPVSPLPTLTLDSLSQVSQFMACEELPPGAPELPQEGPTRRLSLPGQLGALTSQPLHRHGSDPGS
# procedure text: Inhibition of human ERG at 1 uM
quantity measured: inhibition at 1 µM (%)
The figure you give is taken to be in %; do not add the unit.

Quick check: inhibition at 1 µM of `CC(C)n1nc(C(=O)NCC2CCN(CCC3CCCCC3)CC2)c2ccccc21` ?
60

Query `CC(C)n1nc(C(=O)NCC2CCN(CCCN(C)C)CC2)c2ccccc21` next
52

# repeat for `CC(C)n1nc(C(=O)NCC2CCN(CCc3ccc([N+](=O)[O-])cc3)CC2)c2ccccc21`
85

Try this molecule next: `Cn1nc(C(=O)NCC2CCN(CCc3ccccc3)CC2)c2ccccc21`
42

Same thing, different molecule: `CCCCN1CCC(CNC(=O)c2nn(C)c3ccccc23)CC1`
16

Entry `CC(C)n1nc(C(=O)NCC2CCN(CCc3ccccc3)CC2)c2ccccc21` please
54

What would you report for `CC(C)n1nc(C(=O)NCC2CCN(CCc3ccc(O)cc3)CC2)c2ccccc21` ?
70

For `Cn1nc(C(=O)NCC2CCN(CCc3ccccn3)CC2)c2ccccc21` then?
62

Entry `CC(C)n1nc(C(=O)NCC2CCN(CCN3CCOCC3)CC2)c2ccccc21` please
13

Next record, please: `CC(C)n1nc(C(=O)NCC2CCN(CCc3ccc(C(=O)O)cc3)CC2)c2ccccc21`
1
